Listing of recorded log10(IC50) by entry.
# System under test: Cathepsin L (Homo sapiens)
# Construct: purchased Biovision K161-100
# Sequence (P07711 114-333): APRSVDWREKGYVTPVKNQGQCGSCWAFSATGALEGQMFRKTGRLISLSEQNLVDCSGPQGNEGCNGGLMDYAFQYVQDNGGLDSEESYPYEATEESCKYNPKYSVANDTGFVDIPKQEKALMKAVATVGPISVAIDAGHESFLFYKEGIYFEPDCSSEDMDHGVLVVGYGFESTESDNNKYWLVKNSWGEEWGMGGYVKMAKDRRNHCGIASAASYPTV
# Experiment: IC50 determination against Cathepsin L (Biovision kit K161-100)
# Assay type: biochemical
# Condition set: CTSL; Exp-2; read-out: IC50 (nM) Exp-2
Scale: log10; quantity: IC50; unit before log: nM

Record excerpt, results attached:
Compound: CCCCCCNC(=O)[C@H](CCSC)NC(=O)[C@H]1O[C@@H]1C(=O)OCC
log10(IC50): 3.37

Compound: CCOC(=O)[C@H]1O[C@@H]1C(=O)N[C@@H](CCSC)C(=O)NCCCc1ccccc1
log10(IC50): 3.65

Compound: CCOC(=O)[C@H]1O[C@@H]1C(=O)N[C@@H](CCSC)C(=O)NCCCCc1ccccc1
log10(IC50): 3.66

Compound: CCOC(=O)[C@H]1O[C@@H]1C(=O)N[C@@H](CC(C)C)C(=O)NCCC(C)C [zxy-37, E64d, reference compound]
log10(IC50): 2.26

Compound: CCOC(=O)[C@H]1O[C@@H]1C(=O)N[C@@H](CCSC)C(=O)NC(CC)CC
log10(IC50): 4.00

Summary for this compound, CCOC(=O)[C@H]1O[C@@H]1C(=O)N[C@@H](CCSC)C(=O)NCCc1cccc(F)c1 : log10(IC50) is 2.58

Summary for this compound, CCOC(=O)[C@H]1O[C@@H]1C(=O)N[C@@H](CCSC)C(=O)N1CCC(c2ccccc2)CC1 : log10(IC50) is 3.82
